target: Factor X, P00742
Sequence (P00742 whole entry, looked up): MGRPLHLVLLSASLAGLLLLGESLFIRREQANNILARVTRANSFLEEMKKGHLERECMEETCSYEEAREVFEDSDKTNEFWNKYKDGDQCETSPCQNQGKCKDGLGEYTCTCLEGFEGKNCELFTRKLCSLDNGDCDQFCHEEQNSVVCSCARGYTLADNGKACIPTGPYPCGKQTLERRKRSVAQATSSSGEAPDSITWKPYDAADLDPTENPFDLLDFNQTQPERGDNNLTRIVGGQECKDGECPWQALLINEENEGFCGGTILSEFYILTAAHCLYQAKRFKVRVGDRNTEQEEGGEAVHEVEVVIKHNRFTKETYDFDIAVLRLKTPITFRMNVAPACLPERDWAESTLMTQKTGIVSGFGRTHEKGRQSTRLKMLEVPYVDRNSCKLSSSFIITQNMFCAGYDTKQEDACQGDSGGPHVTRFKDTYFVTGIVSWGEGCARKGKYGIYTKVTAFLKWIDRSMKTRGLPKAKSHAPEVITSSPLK

PROTEIN: FIXa-Y155F/K247N/N249S/R318Y/R338E/R403E/E410N (protein) chain 1: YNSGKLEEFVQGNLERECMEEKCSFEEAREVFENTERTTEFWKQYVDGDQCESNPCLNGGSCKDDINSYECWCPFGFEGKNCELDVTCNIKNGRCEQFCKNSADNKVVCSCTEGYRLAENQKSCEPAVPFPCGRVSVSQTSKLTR chain 2: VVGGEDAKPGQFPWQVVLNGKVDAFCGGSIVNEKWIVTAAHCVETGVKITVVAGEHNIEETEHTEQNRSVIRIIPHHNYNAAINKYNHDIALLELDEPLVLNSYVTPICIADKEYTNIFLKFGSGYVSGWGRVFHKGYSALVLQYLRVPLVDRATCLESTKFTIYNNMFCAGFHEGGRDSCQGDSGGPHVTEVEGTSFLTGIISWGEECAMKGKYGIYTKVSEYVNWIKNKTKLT
kcat/KM: 1.8e+08 M⁻¹ s⁻¹

PROTEIN: FIXa R318Y/R338E/R403E/T412A (protein) chain 1: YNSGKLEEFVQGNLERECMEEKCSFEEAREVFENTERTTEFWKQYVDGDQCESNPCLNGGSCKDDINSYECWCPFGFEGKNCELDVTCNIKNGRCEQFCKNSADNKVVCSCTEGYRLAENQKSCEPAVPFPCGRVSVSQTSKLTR chain 2: VVGGEDAKPGQFPWQVVLNGKVDAFCGGSIVNEKWIVTAAHCVETGVKITVVAGEHNIEETEHTEQKRNVIRIIPHHNYNAAINKYNHDIALLELDEPLVLNSYVTPICIADKEYTNIFLKFGSGYVSGWGRVFHKGYSALVLQYLRVPLVDRATCLESTKFTIYNNMFCAGFHEGGRDSCQGDSGGPHVTEVEGTSFLTGIISWGEECAMKGKYGIYTKVSEYVNWIKEKAKLT
kcat/KM: 8e+07 M⁻¹ s⁻¹
